Target: human glucagon receptor (human, UniProt P47871 26-477)
Experiment: cell-based or functional assay
Starred links: 1 amine or outer side, 2 acyl side, 3 side chain; linkers in the order of their positions; H or OH if unused. Non-standard residues stand in square brackets, D forms with d. No end group written: not given here. *: point of attachment. NMe2F‑APPA = N-methyl-2-amino-5-(2-fluorophenyl)pentanoic acid, CN([C@@H](CCCc1ccccc1F)C(=O)[*:2])[*:1]; Bip(2'-Et-4'-OMe) = CCc1cc(OC)ccc1-c1ccc(C[C@H](N)C(=O)O)cc1; Leu(5,5,5,5',5',5'-F6) = N[C@@H](CC(C(F)(F)F)C(F)(F)F)C(=O)O; 2F‑APPA = 2-amino-5-(2-fluorophenyl)pentanoic acid; αMePhe(2-F) = C[C@](N)(Cc1ccccc1F)C(=O)O; NMeBip(OMe) = N-methylated Bip(OMe); hhPhe = N[C@@H](CCCc1ccccc1)C(=O)O; 2,4‑diCl‑APPA = not defined here; aThr = C[C@H](O)[C@H](N)C(=O)O; CNB = not defined here; Aib = CC(C)(N)C(=O)O; Moc = COC(=O)*

binder | output-unit | inhibition of cAMP production, 10 nM
HSQGTFTSD[Bip(2'-Et-4'-OMe)][2,4‑diCl‑APPA] (reading uncertain) [Seq. ID. No. 51: HSQGTFTSD-Bip(OMe)-(2,4-diCl-APPA)] | pmol/ml/µg prt | 3
Ac-H[Aib]QGT[αMePhe(2-F)]TSD[Bip(2'-Et-4'-OMe)][2F‑APPA] (also: reduced (CH2) bonds between 9-10 and 10-11) [Seq. ID. No. 195: CH3CO-H-Aib-QGT-(α-Me-2F-Phe)-TSD-(CH2)-Bip(OMe)-(CH2)-(2F-APPA)] | pmol/ml/µg prt | 12
H[Aib][CNB]GTFTSD[Bip(2'-Et-4'-OMe)][2F‑APPA] (reading uncertain) [Seq. ID. No. 77: H-Aib-(CNB)-GTFTSD-Bip(OMe)-(2F-APPA)] | pmol/ml/µg prt | 18
H[Aib][CNB]G[aThr][αMePhe(2-F)][aThr]SD[Bip(2'-Et-4'-OMe)][NMe2F‑APPA] (reading uncertain) [Seq. ID. No. 132: H-Aib-(CNB)-G-T(allo)-(α-Me-2F-Phe)-T(allo)-SD-Bip(OMe)-((NMe)(2F-APPA))] | pmol/ml/µg prt | 12
Moc-H[Aib][CNB]GT[αMePhe(2-F)]TSD[Bip(2'-Et-4'-OMe)][hhPhe] (reading uncertain) [Seq. ID. No. 206: CH3OCO-H-Aib-(CNB)-GT-(α-Me-2F-Phe)-TSD-Bip(OMe)-(APPA)] | pmol/ml/µg prt | 0
H[Aib][Leu(5,5,5,5',5',5'-F6)]G[aThr][αMePhe(2-F)][aThr]SD[Bip(2'-Et-4'-OMe)][2F‑APPA] (also: thioamide (C═S) bond Z10-Z11) [Seq. ID. No. 218: H-Aib-(Hfl)-G-T(allo)-(α-Me-2F-Phe)-T(allo)-SD-Bip(OMe)-(C═S)-(2F-APPA)] | pmol/ml/µg prt | 6
H[Aib][CNB]G[aThr][αMePhe(2-F)][aThr]SD[Bip(2'-Et-4'-OMe)][2F‑APPA] (reading uncertain; also: thioamide bond between residues 10 and 11) [Seq. ID. No. 168: H-Aib-(CNB)-G-T(allo)-(α-Me-2F-Phe)-T(allo)-SD-Bip(OMe)-(C═S)-(2F-APPA)] | pmol/ml/µg prt | 19
H[Aib][CNB]G[aThr][αMePhe(2-F)][aThr]SD[NMeBip(OMe)][NMe2F‑APPA] (reading uncertain) [Seq. ID. No. 144: H-Aib-(CNB)-G-T(allo)-(α-Me-2F-Phe)-T(allo)-SD-((NMe)Bip(OMe))-((NMe)(2F-APPA))] | pmol/ml/µg prt | 3
H-HSQGTFTSD[Bip(2'-Et-4'-OMe)][hhPhe]-NH2 [Seq. ID. No. 5: HSQGTFTSD-Bip(OMe)-(APPA)] | pmol/ml/µg prt | 5
